# target: PR (Rattus norvegicus)
# Construct: expressed in transfected cells
# Sequence (Q63449 whole entry): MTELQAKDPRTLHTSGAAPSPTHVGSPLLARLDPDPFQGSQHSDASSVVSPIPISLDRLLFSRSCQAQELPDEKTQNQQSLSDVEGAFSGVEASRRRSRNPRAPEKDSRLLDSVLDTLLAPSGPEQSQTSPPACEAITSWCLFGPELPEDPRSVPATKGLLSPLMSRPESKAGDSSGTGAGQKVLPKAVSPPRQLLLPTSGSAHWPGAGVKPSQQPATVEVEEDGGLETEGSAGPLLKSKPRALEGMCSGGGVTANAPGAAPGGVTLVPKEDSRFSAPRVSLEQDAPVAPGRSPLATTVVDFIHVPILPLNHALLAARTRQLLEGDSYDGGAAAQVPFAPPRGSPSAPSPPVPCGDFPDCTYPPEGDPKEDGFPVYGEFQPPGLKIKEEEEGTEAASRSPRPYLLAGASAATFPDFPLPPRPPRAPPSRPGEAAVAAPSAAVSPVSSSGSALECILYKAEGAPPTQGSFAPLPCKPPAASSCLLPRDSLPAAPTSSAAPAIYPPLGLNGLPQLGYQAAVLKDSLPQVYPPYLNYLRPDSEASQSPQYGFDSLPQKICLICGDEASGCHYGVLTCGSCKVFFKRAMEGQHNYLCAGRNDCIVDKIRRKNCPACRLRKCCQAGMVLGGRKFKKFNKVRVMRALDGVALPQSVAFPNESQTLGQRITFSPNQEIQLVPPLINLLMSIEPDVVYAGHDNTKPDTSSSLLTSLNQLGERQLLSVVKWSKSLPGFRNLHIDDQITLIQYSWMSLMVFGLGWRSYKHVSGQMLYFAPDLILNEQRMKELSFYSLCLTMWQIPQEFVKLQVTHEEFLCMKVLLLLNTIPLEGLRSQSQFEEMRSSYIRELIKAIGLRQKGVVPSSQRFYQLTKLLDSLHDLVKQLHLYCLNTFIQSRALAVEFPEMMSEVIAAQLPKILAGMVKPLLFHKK
# methodDescription: PR transactivation in HEK-293 cells
# Type: cell-based

>  <compound>
C[C@](O)(COc1ccc(C#N)cc1)C(=O)Nc1ccc(C#N)c(C(F)(F)F)c1

>  <IC50>
163 nM

$$$$
>  <compound>
CC#C[C@]1(O)CC[C@H]2[C@@H]3CCC4=CC(=O)CCC4=C3[C@@H](c3ccc(N(C)C)cc3)C[C@@]21C [RU486, reference compound]

>  <IC50>
0.048 nM

$$$$
>  <compound>
C[C@@](O)(COc1ccc(C#N)cc1)C(=O)Nc1ccc(C#N)c(C(F)(F)F)c1 [R-enantiomer of Formula IX]

>  <IC50>
1690 nM

$$$$
>  <compound>
C[C@](O)(COc1ccc(C#N)cc1)C(=O)Nc1ccc(C#N)c(Cl)c1

>  <IC50>
17.1 nM

$$$$
